# koff per record follows
Biological target: T1, streptavidin (UniProt P22629 37-163, limits assumed)
T1 construct: Used as phycoerythrin conjugate or on coated beads; also called SA; streptavidin-phycoerythrin
Test: whole-cell dissociation by flow cytometry, 1-2 uM biotin as competitor

Binder	Result
VTSLCMNVCYSLTTY (Insert only) [SA-4]	~0.001 s⁻¹
LPVWCVMHVCLTSSR (Insert only) [SA-6]	~0.001 s⁻¹
TVLICMNICWTGETQ (Insert only) [SA-3]	~0.001 s⁻¹

Kindly review the next binder as well.
I'd like to know its koff. The binder in question is NEWYCQNVCERMPHS (Insert only) [SA-7]
~0.01 s⁻¹

This collection of values is drawn from patent US20190264194A1.
